Cited source: patent US20070243583A1

molecular target: insulin
MEASUREMENT KIND: Insulin Reduction (*10^3 DA650 nm/min^-2)
Please give only the number in your answer, with no unit.

Ask | Please look up its Insulin Reduction (*10^3 DA650 nm/min^-2): FkpA-DsbA5 (protein) AEAAKPATAADSKAAFKNDDQKSAYALGASLGRYMENSLKEQEKLGIKLDKDQLIAGVQDAFADKSKLSDQEIEQTLQAFEARVKSSAQAKMEKDAADNEAKGKEYREKFAKEKDGKQYTTLEKPVAGAPQVLEFFSFFCPHCYQFEEVLHISDNVKKKLPEGVKMTKYHVNFMGGDLGKDLTQAWAVAMALGVEDKVTVPLFEGVQKTQTIRSASDIRDVFINAGIKGEEYDAAWNSFVVKSLVAQQEKAAADVQLRGVPAMFVNGKYQLNPQGMDTSNMDVFVQQYADTVKYLSEKKHHHHHH
Reply | 0.38
